ASSAYED_SYSTEM: Nanoluciferase-BRD9 fusion protein (3×FLAG-NLuc-BRD9) in SYO-1 cells (Homo sapiens (Human), UniProt Q9H8M2)
Sequence (Q9H8M2 whole entry, the tested form may be a part): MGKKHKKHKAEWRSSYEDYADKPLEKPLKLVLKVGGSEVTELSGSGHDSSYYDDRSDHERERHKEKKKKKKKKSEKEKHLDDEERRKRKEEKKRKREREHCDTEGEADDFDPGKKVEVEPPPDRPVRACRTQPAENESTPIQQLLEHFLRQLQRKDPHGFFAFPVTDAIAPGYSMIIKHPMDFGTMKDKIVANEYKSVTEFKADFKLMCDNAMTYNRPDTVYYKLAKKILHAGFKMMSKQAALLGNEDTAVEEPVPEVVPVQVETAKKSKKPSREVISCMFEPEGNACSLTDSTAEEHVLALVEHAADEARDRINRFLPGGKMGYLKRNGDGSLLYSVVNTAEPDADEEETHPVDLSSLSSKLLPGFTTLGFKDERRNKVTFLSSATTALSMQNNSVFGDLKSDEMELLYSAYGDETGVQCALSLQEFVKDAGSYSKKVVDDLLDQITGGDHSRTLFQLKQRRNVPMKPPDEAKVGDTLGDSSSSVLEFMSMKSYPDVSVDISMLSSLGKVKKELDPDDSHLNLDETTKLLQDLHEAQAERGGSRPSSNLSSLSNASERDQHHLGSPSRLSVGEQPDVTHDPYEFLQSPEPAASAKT
EXPERIMENTAL_DETAILS: SYO1 BRD9 NanoLuc degradation assay
Assay type: cell-based
EXPERIMENTAL_CONDITIONS: SYO-1 cells, 6 hours, Table 6C
MEASURED_PROPERTY: IC50

Reference set, count: 4
COMPOUND | MEASURED_PROPERTY | RECORDED_MEASUREMENT
COc1cc(-c2cn(C)c(=O)c3c2CCN(C(=O)NCC(F)F)C3)cc(OC)c1CN1CCN(CCC2CCN(c3ccc4c(c3)C(=O)N(C3CCC(=O)NC3=O)C4)CC2)CC1(C)C (centres unmarked) | IC50 | ≥ 1000 nM
CNC(=O)N1CCc2c(-c3cc(OC)c(CN4CCC(CCN5C(C)CC(c6ccc7c(c6)C(=O)N(C6CCC(=O)NC6=O)C7=O)CC5C)CC4)c(OC)c3)cn(C)c(=O)c2C1 (centres unmarked) | IC50 | < 10 nM
COc1cc(-c2cn(C)c(=O)c3c2CCN(C(=O)NCC(F)F)C3)cc(OC)c1CN(C)c1ccc2c(c1)C(=O)N(C1CCC(=O)NC1=O)C2 (centres unmarked) | IC50 | < 10 nM
CNC(=O)N1CCc2c(-c3cc(OC)c(CN4CCC(CN5CCC6(CN(c7ccc8c(c7)C(=O)N(C7CCC(=O)NC7=O)C8)C6)C(F)(F)C5)CC4)c(OC)c3)cn(C)c(=O)c2C1 (centres unmarked) | IC50 | < 10 nM

Now for a further compound.
Dear colleague, I am looking for the recorded IC50 of the following compound: [2H]C([2H])([2H])n1cc(-c2cc(OC)c(CN3[C@H](C)CN(CCC4CCN(c5ccc6c(c5)C(=O)N(C5CCC(=O)NC5=O)C6)CC4)C[C@H]3C)c(OC)c2)c2c(c1=O)CN(C(=O)NC)CC2 (some centres unmarked)
< 10 nM

====

ASSAYED_SYSTEM: Nanoluciferase-BRD9 fusion protein (3×FLAG-NLuc-BRD9) in SYO-1 cells (Homo sapiens (Human), UniProt Q9H8M2)
EXPERIMENTAL_DETAILS: SYO1 BRD9 NanoLuc degradation assay
Assay type: cell-based
EXPERIMENTAL_CONDITIONS: SYO-1 cells expressing 3×FLAG-NLuc-BRD9, 6 hours incubation, top dose 1 μM
Procedure: Procedure: A stable SYO-1 cell line expressing 3×FLAG-NLuc-BRD9 was generated. On day 0 cells were seeded in 30 μL media into each well of 384-well cell culture plates. The seeding density was 8000 cells/well. […] Nanoluciferase activity was measured by adding 15 μL of freshly prepared Nano-Glo Luciferase Assay Reagent (Promega N1130), shaking the plates for 10 minutes and reading the bioluminescence using an EnVision reader. […]
We begin with a simple list: items and their reported IC50.

Reference set, count: 4
COMPOUND | RECORDED_MEASUREMENT
COc1cc(-c2cn(C)c(=O)c3c2CCN(C(=O)NCCN2CC4(CCN(c5ccc6c(c5)C(=O)N(C5CCC(=O)NC5=O)C6=O)C4)C2)C3)cc(OC)c1CN(C)C (centres unmarked) | 0.1 to 1 µM
COc1cc(-c2cn(C)c(=O)c3c2CCN(C(=O)CC2CCC24CCN(CCCCN2CCN(c5ccc6c(c5)C(=O)N(C5CCC(=O)NC5=O)C6=O)CC2)CC4)C3)cc(OC)c1CN(C)C (centres unmarked) | 0.1 to 1 µM
CNC(=O)N1CCc2c(-c3cc(OC)c(CN4CCN(CCC5CCN(c6ccc7c(c6)C(=O)N(C6CCC(=O)NC6=O)C7=O)CC5)C(COC)C4)c(OC)c3)cn(C)c(=O)c2C1 (centres unmarked) | < 0.01 µM
CNC(=O)N1CCc2c(-c3cc(OC)c(CN4CCC(CCN5C6CC5CN(c5ccc7c(c5)C(=O)N(C5CCC(=O)NC5=O)C7=O)C6)CC4)c(OC)c3)cn(C)c(=O)c2C1 (centres unmarked) | 0.01 to 0.1 µM

Dear colleague, I am looking for the recorded IC50 of the following compound: CNC(=S)N1CCc2c(-c3cc(OC)c(CN4CCC(CCN5CCN(c6ccc7c(c6)C(=O)N(C6CCC(=O)NC6=O)C7=O)CC5)CC4)c(OC)c3)cn(C)c(=O)c2C1 (centres unmarked)
< 0.01 µM

====

ASSAYED_SYSTEM: BRD9 bromodomain (Homo sapiens (Human), UniProt Q9H8M2)
Sequence (Q9H8M2 133-239): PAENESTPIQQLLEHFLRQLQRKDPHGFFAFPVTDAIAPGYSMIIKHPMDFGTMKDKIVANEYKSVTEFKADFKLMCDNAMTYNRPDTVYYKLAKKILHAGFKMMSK
EXPERIMENTAL_DETAILS: BRD9 bromodomain TR-FRET competition binding assay
pIC50: −log10 of the molar value.
We begin with a simple list: items and their reported pIC50.

Reference set, count: 5
COMPOUND | pIC50
COc1cc(-c2cn(C)c(=O)c3c2CCN(C(=O)NCCCCCOc2cccc4c2C(=O)N(C2CCC(=O)NC2=O)C4=O)C3)cc(OC)c1CN(C)C (stereo not shown) | < 8.00
COc1cc(-c2cn(C)c(=O)c3c2CCN(C(=O)NC2CC2)C3)cc(OC)c1CN(C)C | < 8.00
CCCCNC(=S)N1CCc2c(-c3cc(OC)c(CN(C)C)c(OC)c3)cn(C)c(=O)c2C1 | < 8.00
CCN1CCc2c(-c3cc(OC)c(CN(C)C)c(OC)c3)cn(C)c(=O)c2C1 | < 6.00
CNC(=O)N1CCc2c(c(-c3cc(OC)c(CN(C)C)c(OC)c3)cn(C)c2=O)C1 | < 8.00

Dear colleague, I am looking for the recorded pIC50 of the following compound: CNC(=O)N1CCc2c(-c3cc(OC)c(CN4CCC(CCN5CCN(c6ccc7c(c6)C(=O)N(C6CCC(=O)NC6=O)C7=O)CC5)CC4)c(OC)c3)cn(C)c(=O)c2C1 (stereo not shown)
> 8.00

Would you mind doing COc1cc(-c2cn(C)c(=O)c3c2CCN(C(=O)NCCCCCCCCCC(=O)N[C@H](C(=O)N2C[C@H](O)C[C@H]2C(=O)NCc2ccc(-c4scnc4C)cc2)C(C)(C)C)C3)cc(OC)c1CN(C)C as well?
> 8.00

Would you mind doing COc1cc(-c2cn(C)c(=O)c3c2CCNC3)cc(OC)c1CN(C)C as well?
< 6.00

Would you mind doing COc1cc(-c2cn(C)c(=O)c3c2CCN(CCO)C3)cc(OC)c1CN(C)C as well?
< 6.00

Would you mind doing COc1cc(-c2cn(C)c(=O)c3c2CN(C(=O)NCCOCCNc2cccc4c2C(=O)N(C2CCC(=O)NC2=O)C4=O)CC3)cc(OC)c1CN(C)C (stereo not shown) as well?
< 7.00

====

We begin with a simple list: items and their reported pIC50.
ASSAYED_SYSTEM: Nanoluciferase-BRD9 fusion protein (3×FLAG-NLuc-BRD9) in SYO-1 cells (Homo sapiens (Human), UniProt Q9H8M2)
EXPERIMENTAL_DETAILS: SYO1 BRD9 NanoLuc degradation assay
Format: cell-based
EXPERIMENTAL_CONDITIONS: SYO-1 cells expressing 3×FLAG-NLuc-BRD9, 6 hours incubation, top dose 1 μM
pIC50: −log10 of the molar value.

Dear colleague, I am looking for the recorded pIC50 of the following compound: COc1cc(-c2cn(C)c(=O)c3c2CCN(C(=O)NC2CC4CN(CCOc5ccc6c(c5)C(=O)N(C5CCC(=O)NC5=O)C6=O)CC4C2)C3)cc(OC)c1CN(C)C (stereo not drawn)
6.00 to 7.00

====

We begin with a simple list: items and their reported pIC50.
ASSAYED_SYSTEM: Nanoluciferase-BRD9 fusion protein (3×FLAG-NLuc-BRD9) in SYO-1 cells (Homo sapiens (Human))
EXPERIMENTAL_DETAILS: SYO1 BRD9 NanoLuc degradation assay
Format: cell-based
EXPERIMENTAL_CONDITIONS: SYO-1 cells expressing 3×FLAG-NLuc-BRD9, 6 hours incubation, top dose 1 μM
pIC50: −log10 of the molar value.

Reference set, count: 8
COMPOUND | pIC50
COc1cc(-c2cn(C)c(=O)c3c2CCN(C(=O)NCC2CC4(C2)CN(CCOc2ccc5c(c2)C(=O)N(C2CCC(=O)NC2=O)C5=O)C4)C3)cc(OC)c1CN(C)C (centres unmarked) [Compound D268] | 7.00 to 8.00
COc1cc(-c2cn(C)c(=O)c3c2CCN(C(=O)NCCCN2CCC(N4CCN(c5ccc6c(c5)C(=O)N(C5CCC(=O)NC5=O)C6=O)CC4)C2)C3)cc(OC)c1CN(C)C (centres unmarked) [Compound D227] | > 8.00
CNC(=O)N1CCc2c(-c3cc(OC)c(CN4CCC(CCN5CCN(c6cc7c(cc6F)CN(C6CCC(=O)NC6=O)C7=O)CC5)CC4)c(OC)c3)cn(C)c(=O)c2C1 (centres unmarked) [Compound D83] | > 8.00
COc1cc(-c2cn(C)c(=O)c3c2CCN(C(=O)NCC2CC24CCN(CCOc2ccc5c(c2)C(=O)N(C2CCC(=O)NC2=O)C5=O)CC4)C3)cc(OC)c1CN(C)C (centres unmarked) [Compound D269] | 7.00 to 8.00
CNC(=O)N1CCc2c(-c3cc(OC)c(CNC4CC5(C4)CN(c4ccc6c(c4)C(=O)N(C4CCC(=O)NC4=O)C6=O)C5)c(OC)c3)cn(C)c(=O)c2C1 (centres unmarked) [Compound D158] | > 8.00
COc1cc(-c2cn(C)c(=O)c3c2CCN(C(=O)NC2CCC4(CCN(CCCOc5ccc6c(c5)C(=O)N(C5CCC(=O)NC5=O)C6=O)C4)C2)C3)cc(OC)c1CN(C)C (centres unmarked) [Compound D250] | 6.00 to 7.00
CNC(=O)N1CCc2c(-c3cc(OC)c(CN4CCC5(CC4)CC(N4Cc6cc7c(cc6C4)C(=O)N(C4CCC(=O)NC4=O)C7=O)C5)c(OC)c3)cn(C)c(=O)c2C1 (centres unmarked) [Compound D182] | > 8.00
CNC(=O)N1CCc2c(-c3cc(OC)c(CN4CC(C(C)N5CCC6(CC5)CN(c5ccc7c(c5)CN(C5CCC(=O)NC5=O)C7)C6)C4)c(OC)c3)cn(C)c(=O)c2C1 (centres unmarked) [Compound D51] | > 8.00

Dear colleague, I am looking for the recorded pIC50 of the following compound: COc1cc(-c2cn(C)c(=O)c3c2CCN(C(=O)NCC2CC4CN(CCOc5ccc6c(c5)C(=O)N(C5CCC(=O)NC5=O)C6=O)CC4C2)C3)cc(OC)c1CN(C)C (centres unmarked) [Compound D266]
7.00 to 8.00

Would you mind doing CNC(=O)N1CCc2c(-c3cc(OC)c(CN4CCOC(CCCN5CCN(c6ccc7c(c6)C(=O)N(C6CCC(=O)NC6=O)C7=O)CC5)C4)c(OC)c3)cn(C)c(=O)c2C1 (centres unmarked) [Compound D151] as well?
> 8.00

Would you mind doing CNC(=O)N1CCc2c(-c3cc(OC)c(CN4CC(S(=O)(=O)NCCOc5cccc6c5C(=O)N(C5CCC(=O)NC5=O)C6=O)C4)c(OC)c3)cn(C)c(=O)c2C1 (centres unmarked) [Compound D282] as well?
6.00 to 7.00
